System: HepG2 cells
Assay: Anti-proliferative assay in vitro (SRB) on hepatic cancer cell line HepG2
Format: cell-based
Conditions: Homo sapiens, 72 h exposure, tested from 100 to 0.1 µg/mL, Nd: no detectable activity in the used concentrations, DMSO 1%, read-out: HepG2 IC50 ± SD
measurementType: IC50 (µg/mL)
The response must be a number in µg/mL with no trailing unit.

# example entries with known answers
molecule	uom	IC50
COc1ccc(-n2nc(C(C)=O)sc2=NN=C(C)c2sc3nc(-c4ccc(C)cc4)cn3c2C)cc1 [Compound 6b]	µg/mL	59.2
CCOC(=O)c1nn(-c2ccccc2)c(=NN=C(C)c2sc3nc(-c4ccc(C)cc4)cn3c2C)s1 [Compound 6d]	µg/mL	41.1
CC(=O)c1nn(-c2ccc(C)cc2)c(=NN=C(C)c2sc3nc(-c4ccc(C)cc4)cn3c2C)s1 [Compound 6a]	µg/mL	63.3
CC(=NN=c1sc(C(=O)Nc2ccccc2)nn1-c1ccccc1)c1sc2nc(-c3ccc(C)cc3)cn2c1C [Compound 6g]	µg/mL	33.2
CC(=O)c1nn(-c2ccc(S(=O)(=O)c3ccc(-n4nc(C(C)=O)s/c4=N\N=C(/C)c4sc5nc(-c6ccc(C)cc6)cn5c4C)cc3)cc2)/c(=N/N=C(\C)c2sc3nc(-c4ccc(C)cc4)cn3c2C)s1 [Compound 12]	µg/mL	12.7
CCOC(=O)c1nn(-c2ccc(Br)cc2)c(=NN=C(C)c2sc3nc(-c4ccc(C)cc4)cn3c2C)s1 [Compound 6f]	µg/mL	57.5

IC50 for CC(=NN=c1sc(-c2ccccc2)nn1-c1cccc(-n2nc(-c3ccccc3)sc2=NN=C(C)c2sc3nc(-c4ccc(C)cc4)cn3c2C)c1)c1sc2nc(-c3ccc(C)cc3)cn2c1C [Compound 10] ?
23.5

IC50 for COc1cccc2c1C(=O)c1c(O)c3c(c(O)c1C2=O)C[C@@](O)(C(=O)CO)C[C@@H]3O[C@H]1C[C@H](N)[C@H](O)[C@H](C)O1 [Doxorubicin, reference compound] ?
3.56
